Experiment: Protein binding in rat plasma (dialysis)
Type: in vitro ADME
Conditions: Rat Plasma, intended 100 nM, actual 76.0 nM; read-out: % Bound (converted)
quantity: fraction unbound at 4 h, 100 nM
// return just the number, without any unit appended

// query Request the reported fraction unbound at 4 h, 100 nM associated with CO[C@@H]1[C@H](OC(=O)N2CC(CCN3CCOCC3)C2)CC[C@]2(CO2)[C@H]1[C@@]1(C)O[C@@H]1CC=C(C)C [Compound A]
// result 0.466

* * *

Assay: Protein binding in dog plasma (dialysis)
Type: in vitro ADME
Conditions: Dog Plasma, intended 5 nM, actual 3.17 nM at end of 4-hour dialysis; read-out: % Bound (converted)
quantity: fraction unbound at 4 h, 5 nM
Write the value as a bare number.

// query Return reported fraction unbound at 4 h, 5 nM; argument: CO[C@@H]1[C@H](OC(=O)N2CC(CCN3CCOCC3)C2)CC[C@]2(CO2)[C@H]1[C@@]1(C)O[C@@H]1CC=C(C)C
// result 0.311

Attribution: patent US20200030278A1
